study.target: Paired box protein Pax-6 (Homo sapiens) (UniProt P26367)
Sequence (P26367 whole entry, looked up): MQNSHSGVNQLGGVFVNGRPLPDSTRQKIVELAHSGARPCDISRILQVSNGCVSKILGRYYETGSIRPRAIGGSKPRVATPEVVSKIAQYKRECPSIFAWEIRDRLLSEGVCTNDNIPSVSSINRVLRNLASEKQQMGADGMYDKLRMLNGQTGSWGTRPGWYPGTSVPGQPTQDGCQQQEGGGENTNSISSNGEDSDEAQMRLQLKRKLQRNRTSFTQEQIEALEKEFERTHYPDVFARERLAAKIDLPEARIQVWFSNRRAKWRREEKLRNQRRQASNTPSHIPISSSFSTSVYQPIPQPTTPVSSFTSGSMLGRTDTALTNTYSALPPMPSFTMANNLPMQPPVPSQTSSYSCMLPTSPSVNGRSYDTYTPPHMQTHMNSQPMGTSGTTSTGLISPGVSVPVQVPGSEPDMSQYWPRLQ
assay.text: ATG_Pax6_CIS: Attagene CIS-FACTORIAL HepG2 Assay for human Paired Box 6 (PAX6) (AID 2282956)
particulars: HepG2 CIS-FACTORIAL PAX6 reporter transcription, RNA readout; actives raise or lower the signal
Description: ATG_CIS is a cell-based, multiplexed-readout assay that uses HepG2, a human liver cell line, with measurements taken at 24 hours after chemical dosing in a 24-well plate.ATG_Pax6_CIS is one of 52 assay component(s) measured or calculated from the ATG_CIS assay. […] This assay endpoint, ATG_Pax6_CIS, was analyzed with bidirectional fitting relative to DMSO as the negative control and baseline of activity. […]
Activity calls are given as the source filed them. How the source made its calls: active means hit-call score of the fitted dose curve at least 0.9, where 1 is the maximum; inactive means score below 0.9.
Return exactly one item of active, inactive

Exam item: Test call, this molecule: OCC(F)(F)C(F)(F)C(F)(F)F
Marked response: inactive

Exam item: Test call, this molecule: CCc1c(Br)c(Br)c(Br)c(Br)c1Br
Marked response: inactive

Exam item: Test call, this molecule: C=CC(=O)OCC(F)(F)C(F)(F)C(F)(F)C(F)(F)C(F)(F)C(F)(F)C(F)(F)F
Marked response: inactive

Exam item: Test call, this molecule: FC(F)(F)C(F)(F)C(F)(F)C(F)(F)CCI
Marked response: inactive

Exam item: Test call, this molecule: C=CC(F)(F)C(F)(F)C(F)(F)C(F)(F)C(F)(F)C(F)(F)C(F)(F)C(F)(F)F
Marked response: inactive

Exam item: Test call, this molecule: CCC(=O)OCCc1ccccc1
Marked response: inactive

Exam item: Test call, this molecule: O=C(O)C(F)(OC(F)(F)C(F)(OC(F)(F)C(F)(OC(F)(F)C(F)(F)C(F)(F)F)C(F)(F)F)C(F)(F)F)C(F)(F)F (centres undefined)
Marked response: inactive

Exam item: Test call, this molecule: FC(F)(I)C(F)(F)C(F)(F)C(F)(F)I
Marked response: inactive

Exam item: Test call, this molecule: CCCCNc1ccccc1
Marked response: inactive

Exam item: Test call, this molecule: CCCCOc1ccc(N)cc1
Marked response: inactive

Exam item: Test call, this molecule: OCC(F)(F)C(F)(F)C(F)(F)C(F)(F)C(F)(F)C(F)F
Marked response: inactive

Exam item: Test call, this molecule: CCO[Si](CCC(F)(F)C(F)(F)C(F)(F)C(F)(F)C(F)(F)C(F)(F)F)(OCC)OCC
Marked response: inactive

Exam item: Test call, this molecule: O=S(=O)(O)c1ccc2ccccc2c1
Marked response: inactive

Exam item: Test call, this molecule: CC(C)=CCCC(C)CCOC(=O)C(C)C (centres undefined)
Marked response: inactive

Exam item: Test call, this molecule: O=C(O)C(F)(F)C(F)(F)F
Marked response: inactive

Exam item: Test call, this molecule: CCCCC(CC)COP(=O)(O)OCC(CC)CCCC (centres undefined)
Marked response: inactive

Exam item: Test call, this molecule: CCCCCC=O
Marked response: inactive

Exam item: Test call, this molecule: FC(F)(F)C(F)(F)C(F)(F)C(F)(F)C(F)(F)C(F)(F)CCS
Marked response: inactive

Exam item: Test call, this molecule: FC(F)(F)C(F)(F)C(F)(F)CI
Marked response: inactive

Exam item: Test call, this molecule: CCCCCCCCCCCCCCCC[N+](C)(C)Cc1ccccc1
Marked response: inactive

Exam item: Test call, this molecule: CCCCCCCOC(=O)c1ccccc1C(=O)OCCCCCCC
Marked response: inactive

Exam item: Test call, this molecule: CCCCOCCOCCOC(=O)CCCCC(=O)OCCOCCOCCCC
Marked response: inactive

Exam item: Test call, this molecule: CCc1ccc(C(c2ccc(CC)cc2)C(Cl)Cl)cc1
Marked response: inactive

Exam item: Test call, this molecule: COC(OC(C)=O)c1ccccc1 (centres undefined)
Marked response: inactive

Exam item: Test call, this molecule: O=C(C=Cc1ccccc1)OCC=Cc1ccccc1
Marked response: inactive

Exam item: Test call, this molecule: O[Si](c1ccccc1)(c1ccccc1)c1ccccc1
Marked response: inactive

Exam item: Test call, this molecule: Nc1ccc(S(=O)(=O)Nc2nccs2)cc1
Marked response: inactive

Exam item: Test call, this molecule: OCCCC(F)(F)C(F)(F)C(F)(F)F
Marked response: inactive

Exam item: Test call, this molecule: CC(C)c1ccccc1N
Marked response: inactive

Exam item: Test call, this molecule: C=C(C)C(=O)OCCC(F)(F)C(F)(F)C(F)(F)C(F)(F)C(F)(C(F)(F)F)C(F)(F)F
Marked response: inactive

Exam item: Test call, this molecule: FC(F)(F)C(F)(F)C(F)(F)C(F)(F)C(F)(F)C(F)(F)C(F)(F)C(F)(F)CCS
Marked response: inactive

Exam item: Test call, this molecule: O=S(=O)(OCC(F)F)C(F)(F)F
Marked response: inactive

Exam item: Test call, this molecule: FC(F)(F)C(F)(F)C(F)(F)N(C(F)(F)C(F)(F)C(F)(F)F)C(F)(F)C(F)(F)C(F)(F)F
Marked response: inactive

Exam item: Test call, this molecule: FC(F)(F)C(F)(F)CNCC(F)(F)C(F)(F)F
Marked response: inactive

Exam item: Test call, this molecule: CCCCCCOC(=O)c1ccccc1
Marked response: inactive

Exam item: Test call, this molecule: C=C(C)C(=O)OCC(F)(F)C(F)(F)C(F)(F)C(F)(F)C(F)(F)C(F)(F)C(F)(F)F
Marked response: inactive

Exam item: Test call, this molecule: O=C(O)C(F)(OC(F)(F)C(F)(OC(F)(F)C(F)(F)C(F)(F)F)C(F)(F)F)C(F)(F)F (centres undefined)
Marked response: inactive

Exam item: Test call, this molecule: C=CC/C=C/C/C=C/C/C=C/C
Marked response: inactive

Exam item: Test call, this molecule: O=C(O)C(F)(F)C(F)(F)C(F)(F)C(F)(F)C(F)(F)C(F)(F)C(F)(F)C(F)(F)C(F)(F)C(F)(F)C(F)(F)C(F)(F)C(F)(F)F
Marked response: inactive

Exam item: Test call, this molecule: Nc1ccc([N+](=O)[O-])cc1O
Marked response: inactive

Exam item: Test call, this molecule: OCC(F)(F)C(F)(F)C(F)(F)C(F)(F)C(F)(F)C(F)(F)F
Marked response: inactive

Exam item: Test call, this molecule: Nc1ccc(Oc2cccc(Oc3ccc(N)cc3)c2)cc1
Marked response: active

Exam item: Test call, this molecule: Cc1cc(C)cc(O)c1
Marked response: inactive

Exam item: Test call, this molecule: N=C(N)C(F)(F)C(F)(F)C(F)(F)C(F)(F)C(F)(F)C(F)(F)C(F)(F)F
Marked response: inactive

Exam item: Test call, this molecule: O=C(CC(=O)C(F)(F)C(F)(F)F)C(F)(F)F
Marked response: inactive

Exam item: Test call, this molecule: C=CC(=O)OCC(F)(F)C(F)(F)C(F)(F)C(F)(F)COC(=O)C=C
Marked response: active

Exam item: Test call, this molecule: CC(C)(C)C(=O)CC(=O)C(F)(F)C(F)(F)C(F)(F)F
Marked response: inactive

Exam item: Test call, this molecule: O=C(O)C(F)(F)C(F)(F)C(F)F
Marked response: inactive

Exam item: Test call, this molecule: CO[Si](OC)(c1ccccc1)c1ccccc1
Marked response: inactive
